- procedure details: chemical genetic growth profiling, strain panel (AID 1159580);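 also: tested at 20 µM; growth read once vehicle control cultures reached saturation at 30 °C; 1 = growth at the plate median or of vehicle wells; lower values mean less growth of the strain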
- study conditions: S. cerevisiae deletion strains, growth OD, locus YNL250W, strain rad50, active compounds read low
Out of some 5,500 compounds screened, about 2,000 (36%) were called active. Not shown: some 18% with an inconclusive outcome. This is one part of the list.
# normalized growth per entry

{"compound": "Cc1cc(=O)c2c(O)c(C)c(O)cc2o1", "normalized growth": 0.967}
{"compound": "CC1(O)/C=C/C=C(\\CO)C2CC(C)(C)C2(O)CC1 (stereo not drawn)", "normalized growth": 1.02}
{"compound": "COc1ccc(-c2coc3c(OC)c(OC)cc(OC)c3c2=O)cc1", "normalized growth": 1.02}
{"compound": "O=C(O)C1C(O)CCC2CN3CCc4c([nH]c5ccccc45)C3CC21 (stereo not drawn)", "normalized growth": 1.02}
{"compound": "COc1ccc(C[C@H]2NC[C@H](O)[C@H]2OC(C)=O)cc1", "normalized growth": 0.986}
{"compound": "Cc1ccc(C(=O)C(C)CN2CCCCC2)cc1 (stereo not drawn)", "normalized growth": 1.01}
{"compound": "CCCCOc1ccc(C(=O)CCN2CCCCC2)cc1", "normalized growth": 0.986}
{"compound": "COC(=O)[C@H]1[C@H]2C[C@H]3c4[nH]c5ccccc5c4CCN3C[C@H]2CC[C@@H]1O", "normalized growth": 1.02}
{"compound": "OCC(O)Cc1ccc2c(c1)OCO2 (stereo not drawn)", "normalized growth": 1.01}
{"compound": "O=C(O)C1CC([C@@H]2CCCCN2)CN2CCCCC12 (stereo partly drawn)", "normalized growth": 0.983}
{"compound": "NC(=O)N1c2ccccc2CC(=O)c2ccccc21", "normalized growth": 0.99}
{"compound": "NC(=O)c1ncn([C@@H]2O[C@H](CO)[C@@H](O)[C@H]2O)c1O", "normalized growth": 1.01}
{"compound": "O[C@H]1C=C2CCN3Cc4cc5c(cc4C(C23)[C@@H]1O)OCO5 (stereo partly drawn)", "normalized growth": 0.852}
{"compound": "C[N+](C)(C)CC(=O)[O-]", "normalized growth": 0.991}
{"compound": "Cc1cc(=O)c2c(O)cc(O)c(C)c2o1", "normalized growth": 0.976}
{"compound": "COC(=O)[C@@H]1C(O)CC[C@H]2CN3CCc4c([nH]c5ccccc45)[C@@H]3C[C@@H]21 (stereo partly drawn)", "normalized growth": 0.975}
{"compound": "CN1Cc2c(ccc3c2OCO3)C2C(O)Cc3cc4c(cc3C21)OCO4 (stereo not drawn)", "normalized growth": 1.02}
{"compound": "COc1c(O)cc2oc3cc(O)c(CC=C(C)C)c(O)c3c(=O)c2c1CC=C(C)C", "normalized growth": 0.862}

---

# normalized growth per entry
- procedure details: chemical genetic growth profiling, strain panel (AID 1159580)
- study conditions: S. cerevisiae deletion strains, growth OD, locus YLR342W, strain FKS1 (second series), active compounds read low
The whole screen tested about 5,500 compounds, of which about 2,000 (36%) were called active. About 18% were inconclusive and are not listed. The list shows a part of the results.
property label: normalized growth

{"compound": "COc1ccc2c(c1)C1(C)CCC(=O)CC1CC2 (centres undefined)", "property label": "normalized growth", "reported result": 0.949}
{"compound": "CN=C(NC#N)NCCSCc1nc[nH]c1C", "property label": "normalized growth", "reported result": 1.01}
{"compound": "COC(=O)[C@H]1[C@H]2C[C@H]3c4[nH]c5ccccc5c4CCN3C[C@H]2CC[C@@H]1O", "property label": "normalized growth", "reported result": 0.984}
{"compound": "CC(=C(CCOP(=O)(O)O)SC(=O)c1ccccc1)N(C=O)Cc1cnc(C)nc1N", "property label": "normalized growth", "reported result": 1}

---

- procedure details: chemical genetic growth profiling, strain panel (AID 1159580)
- study conditions: S. cerevisiae deletion strains, growth OD, locus YKL190W, strain CNB1, active compounds read low
Screen size: about 5,500 compounds; about 2,000 (36%) were called active. Roughly 18% stayed inconclusive and do not appear here. Some of the results follow.
# normalized growth per entry

{"compound": "O=C(O)COCC(=O)N1CCc2c([nH]c3ccccc23)C1C(F)(F)F (centres undefined)", "normalized growth": 1.03}
{"compound": "COc1ccc(C[C@H]2NC[C@H](O)[C@H]2OC(C)=O)cc1", "normalized growth": 0.206}
{"compound": "C=CC1=C(C(=O)O)N2C(=O)[C@@H](NC(=O)/C(=N/O)c3csc(N)n3)[C@H]2SC1", "normalized growth": 1.02}
{"compound": "CC(C(=O)O)c1ccc2c(c1)[nH]c1ccc(Cl)cc12 (centres undefined)", "normalized growth": 1.01}

---

# normalized growth per entry
- procedure details: chemical genetic growth profiling, strain panel (AID 1159580);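 also: tested at 20 µM; growth read once vehicle control cultures reached saturation at 30 °C; 1 = growth at the plate median or of vehicle wells; lower values mean less growth of the strain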
- study conditions: S. cerevisiae deletion strains, growth OD, locus YFL009W, strain cdc4, active compounds read low
The whole screen tested about 5,500 compounds, of which about 2,000 (36%) were called active. Inconclusive results (about 18%) are left out. Some of the results follow.
property label: normalized growth

{"compound": "Cc1oc2c(F)c(F)c(F)c(F)c2c1C(=O)ONC(N)c1ccc(OS(=O)(=O)N(C)C)cc1 (stereo not given)", "reported result": "0.962 (inactive)"}
{"compound": "CC1=CC(=O)C(CCOCCC2=CC(=O)C(C)=CC2=O)=CC1=O", "reported result": "0.993 (inactive)"}
{"compound": "N#Cc1c(Cl)c(Cl)c(Cl)c(Cl)c1C#N", "reported result": "0.685 (active)"}
{"compound": "NC(N)=Nc1nc(-c2cc(Cl)sc2Cl)cs1", "reported result": "0.983 (inactive)"}
{"compound": "O=C(Oc1cc(Cl)c(Cl)cc1Cl)C1c2ccccc2Oc2ccccc21", "reported result": "0.933 (inactive)"}

---

- procedure details: chemical genetic growth profiling, strain panel (AID 1159580);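 also: tested at 20 µM; growth read once vehicle control cultures reached saturation at 30 °C; 1 = growth at the plate median or of vehicle wells; lower values mean less growth of the strain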
- study conditions: S. cerevisiae deletion strains, growth OD, locus YGR229C, strain SMI1, active compounds read low
About 2,000 (36%) of roughly 5,500 compounds were called active. Not shown: some 18% with an inconclusive outcome. Some of the results follow.
# normalized growth per entry

{"compound": "CCCCOc1ccc(C(=O)CCN2CCCCC2)cc1", "normalized growth": 0.428}
{"compound": "Nc1nc2[nH]c(=O)cnc2c(=O)[nH]1", "normalized growth": 1.01}
{"compound": "CCCCOc1cc(C(=O)O)ccc1OC", "normalized growth": 1}
{"compound": "CC(=C(CCOP(=O)(O)O)SC(=O)c1ccccc1)N(C=O)Cc1cnc(C)nc1N", "normalized growth": 1.02}
{"compound": "CC1(O)/C=C/C=C(\\CO)C2CC(C)(C)C2(O)CC1 (centres undefined)", "normalized growth": 1.02}
{"compound": "CCCCOc1ccc(OCCCN2CCOCC2)cc1", "normalized growth": 0.598}
{"compound": "CCCCCCCCCCCCCCSCC(=O)O", "normalized growth": 0.959}
{"compound": "Cc1ccc(C(=O)C(C)CN2CCCCC2)cc1 (centres undefined)", "normalized growth": 0.983}
{"compound": "COC(=O)c1c(Cl)c(Cl)c(C(=O)OC)c(Cl)c1Cl", "normalized growth": 0.988}

---

# normalized growth per entry
- procedure details: chemical genetic growth profiling, strain panel (AID 1159580);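 also: tested at 20 µM; growth read once vehicle control cultures reached saturation at 30 °C; 1 = growth at the plate median or of vehicle wells; lower values mean less growth of the strain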
- study conditions: S. cerevisiae deletion strains, growth OD, locus YPR163C, strain tif3, active compounds read low
In all, about 5,500 compounds went through this assay and about 2,000 (36%) were called active. Not shown: some 18% with an inconclusive outcome. The list shows a part of the results.

{"molecule": "N=c1nc(N2CCCCC2)cc(N)n1O", "normalized growth": "0.993 (inactive)"}
{"molecule": "OC(CCN1CCCCC1)(c1ccccc1)c1ccccc1", "normalized growth": "1.02 (inactive)"}
{"molecule": "COc1ccc(-c2coc3c(OC)c(OC)cc(OC)c3c2=O)cc1", "normalized growth": "0.985 (inactive)"}
{"molecule": "CCc1cccc(C)c1N(C(=O)CCl)C(C)COC (stereo not given)", "normalized growth": "1.02 (inactive)"}
{"molecule": "O=c1ccc2cc(O)c(O)cc2o1", "normalized growth": "1 (inactive)"}
